test.system: T1, human pIgR extracellular domain (ECD) (human, UniProt P01833 19-638)
T1 construct: also called hpIgR ECD
T1 sequence (P01833 other isoform, or with tags, fused parts or gaps): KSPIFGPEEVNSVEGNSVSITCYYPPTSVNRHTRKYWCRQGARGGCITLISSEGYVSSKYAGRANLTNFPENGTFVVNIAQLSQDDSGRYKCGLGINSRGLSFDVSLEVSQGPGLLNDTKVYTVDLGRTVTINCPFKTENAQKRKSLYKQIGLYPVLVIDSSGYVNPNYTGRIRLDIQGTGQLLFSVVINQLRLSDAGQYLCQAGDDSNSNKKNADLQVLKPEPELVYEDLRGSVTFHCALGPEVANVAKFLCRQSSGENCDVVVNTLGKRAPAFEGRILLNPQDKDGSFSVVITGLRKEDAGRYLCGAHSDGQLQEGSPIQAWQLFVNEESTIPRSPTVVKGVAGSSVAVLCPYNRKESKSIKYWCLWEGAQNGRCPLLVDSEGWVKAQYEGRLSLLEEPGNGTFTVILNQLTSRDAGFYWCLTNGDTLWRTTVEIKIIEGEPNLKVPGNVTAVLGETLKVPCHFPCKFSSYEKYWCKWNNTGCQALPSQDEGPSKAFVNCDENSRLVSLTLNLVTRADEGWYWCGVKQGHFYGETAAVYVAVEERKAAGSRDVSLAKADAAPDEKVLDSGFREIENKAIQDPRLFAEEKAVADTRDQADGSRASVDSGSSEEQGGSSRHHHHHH
protocol.notes: BLI (Octet RED384), 1:1 fit, 25 C, PBS
List of kon values.

{"binder": "VHH11-linker-mono-Fc protein (Fc fusion, made in CHO cells; also called VHH11-mono-Fc; hpIgR_250) EVQVVESGGGLVQAGGSLRLSCAASGRTFTTYRMGWFRQAPGKEREFVAAIRWSGGRTLYADSVKGRFTISRDNAKNTAYLQMNNLRPEDTAVYYCAADLAEYSGTYSSPADSPAGYDYWGQGTQVTVSSEPKTPKPQPQPQLQPQPNPTTESKSPKSPAPELLGGPSVFLFPPKPKDTLMISRTPEVTCVVVDVSHEDPEVKFNWYVDGVEVHNAKTKPREEQYNSTYRVVSVLTVLHQDWLNGKEYKCKVSNKALPAPIEKTISKAKGQPREPQVYTKPPSREEMTKNQVSLSCLVKGFYPSDIAVEWESNGQPENNYKTTVPVLDSDGSFRLASYLTVDKSRWQQGNVFSCSVMHEALHNHYTQKSLSLSPGK", "readout.kind": "kon", "result": "113000 M⁻¹ s⁻¹"}

Moving on to another binder below.
What value of kon has been reported for the following binder? VHH12-linker-mono-Fc protein (Fc fusion, made in CHO cells; also called VHH12-mono-Fc; hpIgR_266) QVQLVETGGGLVQAGDSLRLSCAASGRTLSFNTYAMGWFRQAPGKEREFVASITWNGGSTSYADSVKGRFTITRDNAKNTATLRMNSLQPDDTAVYYCAAARYYVSGTYFPANYWGQGTQVTVSSEPKTPKPQPQPQLQPQPNPTTESKSPKSPAPELLGGPSVFLFPPKPKDTLMISRTPEVTCVVVDVSHEDPEVKFNWYVDGVEVHNAKTKPREEQYNSTYRVVSVLTVLHQDWLNGKEYKCKVSNKALPAPIEKTISKAKGQPREPQVYTKPPSREEMTKNQVSLSCLVKGFYPSDIAVEWESNGQPENNYKTTVPVLDSDGSFRLASYLTVDKSRWQQGNVFSCSVMHEALHNHYTQKSLSLSPGK 38300 M⁻¹ s⁻¹

src = patent US20220324970A1
